- System: MCF7
- experiment.description: NCI tumour cell line growth inhibition, 48 h
The source made the active and inactive calls. Rule as the data show it: active = GI50 up to about 1.1 µM and inactive = higher.
Possible outcomes: t (active), f (inactive)

compound=NCCNc1ccc(NCCN)c2c1C(=O)c1c(O)ccc(O)c1C2=O label_class=t
compound="O=c1[nH]c(=O)n(C2CC(O)C(CO)O2)cc1/N=N/NCc1ccccc1 (stereo unspecified)" label_class=f
compound=Oc1ccc(-c2cc(-c3cc(-c4ccc(O)cc4)no3)on2)cc1 label_class=f
compound=Nn1c(SCC(=O)NCc2ccccc2)nc2ccccc2c1=O label_class=f
compound=O=[N+]([O-])c1c2nc3n(c2cc2c1nc1n2CCC1)CCC3 label_class=f
compound=CCOP(=O)(OCC)/C(C#N)=C/c1cnc[nH]1 label_class=f
compound=C=CCN(C(C)=O)c1cc(OCc2ccccc2)c2c(c1)c(C)cn2S(=O)(=O)c1ccccc1 label_class=f
compound=Cn1c(=O)c2nc(COCc3nc4c(=O)n(C)c(=O)n(C)c4[nH]3)[nH]c2n(C)c1=O label_class=f
compound="CC1(C)OC(=O)N(c2ccccc2)C12C=Cc1cccc([N+](=O)[O-])c1O2 (stereo unspecified)" label_class=f
compound="N#CCC(=O)N/N=C\\C(O)C(O)C(O)C(O)CO (stereo unspecified)" label_class=f
compound=O=C(/C=C/c1ccc(O)c(O)c1)NCCc1ccc(-c2ccccc2)cc1 label_class=f
compound="CCCCCCCCCCC1OC([C@@H](O)CC[C@H](O)C2CC[C@@H](CCCCCCCC(O)CC3=CC(C)OC3=O)O2)CCC1O (stereo partly specified)" label_class=f
compound="CCCCC(O)(c1ccccc1)C(O)(c1ccccc1)c1c(F)c(F)c(F)c(F)c1F (stereo unspecified)" label_class=f
compound=C=C1C(=O)O[C@H]2[C@H]3O[C@@H](C[C@@H]12)[C@@]1(C)CC[C@H](O1)[C@H](C)CCC[C@H]3C label_class=f
compound="CSc1nc(Br)nc2ncn(C3CC(Oc4ccc(C)cc4)C(COc4ccc(C)cc4)O3)c12 (stereo unspecified)" label_class=f
compound=COc1cc2c3c(n(Cc4ccccc4)c(=O)c2cc1OC)-c1ccccc1C3=O label_class=f
compound="C=CC(O)(CBr)CCC(Br)C(=C)C (stereo unspecified)" label_class=f
compound=CCOc1ccc2ccc3cccnc3c2n1 label_class=f
compound=Cc1c(C)n(-c2ccccc2)c2nc(S(C)(=O)=O)nc(S(C)(=O)=O)c12 label_class=f
compound="COC(=O)[C@@H]1COC(C(C)(C)C)N1C(=O)C(c1ccccc1)c1ccccc1 (stereo partly specified)" label_class=f
compound="CC(=O)OCC1OC(N2C(=O)NC(=O)C3C=C4CCCCC4=CC32)CC1OC(C)=O (stereo unspecified)" label_class=f
